Catalogue of compounds with associated pKi
- targetUnderTest: SYK kinase (Homo sapiens, UniProt P43405)
pKi: −log10 of the molar value.

CN1CCN(c2ccc(Nc3nc(-c4cccc(-c5nn[nH]n5)c4)nc4cn[nH]c34)cc2)CC1	> 8.00
O=S(=O)(c1cccc(Nc2nc(-c3cccs3)nc3cn[nH]c23)c1)N1CCOCC1	6.00 to 7.00
c1cncc(-c2cccc(-c3nc(Nc4ccc5c(c4)NCCO5)c4[nH]ncc4n3)c2)c1	7.00 to 8.00
CN(C)CCCOc1cccc(-c2nc(Nc3ccc(N4CCN(C)CC4)cc3)c3[nH]ncc3n2)c1	7.00 to 8.00
c1ccc2sc(-c3nc(Nc4ccc5cn[nH]c5c4)c4[nH]ncc4n3)nc2c1	> 8.00

Prompt line: Request the reported pKi associated with CN1Cc2ccc(Nc3nc(-c4cccs4)nc4cn[nH]c34)cc2C1
Response line: > 8.00

Prompt line: Same read-out for O=C1CCc2ccc(Nc3nc(-c4nccs4)nc4cn[nH]c34)cc2N1 ?
Response line: > 8.00

Prompt line: Also need COc1ccc(Nc2nc(-c3c(F)cccc3F)nc3cn[nH]c23)cc1OC , thanks.
Response line: > 8.00

Prompt line: Could you do the same for Fc1cccc(F)c1-c1nc(Nc2ccc(N3CCN(C4CC4)CC3)cc2)c2[nH]ncc2n1 , please?
Response line: 7.00 to 8.00

Prompt line: Please do the same for CC(=O)N1CCN(c2ccc(Nc3nc(-c4ccsc4)nc4cn[nH]c34)cc2)CC1 as well.
Response line: > 8.00

Prompt line: Now this one: CN1CCN(c2ccc(Nc3nc(-c4cccc(OCC(=O)O)c4)nc4cn[nH]c34)cc2)CC1
Response line: 6.00 to 7.00

Attribution: patent US9802937B2
